# test-protocol: chemical recovery into PDMS from spiked human plasma; higher = better extraction
# experimental-context: pooled human plasma; extraction method: PES with PDMS; equilibration time (d): 6
quantity-kind: chemical recovery into PDMS

mol_smiles=Oc1ccc(Cl)cc1Cc1ccccc1 result_value=15%
mol_smiles=Brc1ccc(Oc2c(Br)cc(Br)cc2Br)c(Br)c1 result_value=95.9%
mol_smiles=c1ccc2c(c1)Cc1cc3ccccc3cc1-2 result_value=110%

###

# test-protocol: chemical recovery by SPE of plasma after PDMS sampling; higher = better extraction
# experimental-context: pooled human plasma; extraction method: HLB SPE of plasma after PES; equilibration time (d): 6
quantity-kind: chemical recovery by SPE of plasma (%)

molecule="CC(C)NCC(O)COc1cccc2ccccc12 (stereo not drawn)" quantity_kind="chemical recovery by SPE of plasma" result_value=7.31
molecule=CC(C)Nc1nc(N)nc(Cl)n1 quantity_kind="chemical recovery by SPE of plasma" result_value=19
molecule=CC(C)(Oc1ccc(Cl)cc1)C(=O)O quantity_kind="chemical recovery by SPE of plasma" result_value=51.5
molecule=CN(C)c1ccc(C(=O)c2ccc(N(C)C)cc2)cc1 quantity_kind="chemical recovery by SPE of plasma" result_value=0.502
molecule=CCc1cccc(C)c1NC(=O)CS(=O)(=O)O quantity_kind="chemical recovery by SPE of plasma" result_value=40.3
molecule="NC(=O)N1c2ccccc2C=Cc2cc(O)ccc21 [2-Hydroxycarbamazepine]" quantity_kind="chemical recovery by SPE of plasma" result_value=51.7
molecule=COc1nc(C)nc(NC(=O)NS(=O)(=O)c2ccccc2CCC(F)(F)F)n1 quantity_kind="chemical recovery by SPE of plasma" result_value=45.3
molecule=Cc1ccc(NC(=O)N(C)C)cc1Cl quantity_kind="chemical recovery by SPE of plasma" result_value=5.83
molecule="COc1ccc2cc(C(C)C(=O)O)ccc2c1 (stereo not drawn)" quantity_kind="chemical recovery by SPE of plasma" result_value=36.5
molecule="O=C(O)COCCN1CCN(C(c2ccccc2)c2ccc(Cl)cc2)CC1 (stereo not drawn)" quantity_kind="chemical recovery by SPE of plasma" result_value=47.7
molecule=COCCN(C(=O)CCl)c1c(C)cccc1C quantity_kind="chemical recovery by SPE of plasma" result_value=1.66
molecule="COCC(C)N(C(=O)C(=O)O)c1c(C)csc1C (stereo not drawn)" quantity_kind="chemical recovery by SPE of plasma" result_value=51.8
molecule=NCC1(CC(=O)O)CCCCC1 quantity_kind="chemical recovery by SPE of plasma" result_value=0.00483
molecule=CN/C(=N\[N+](=O)[O-])NCc1cnc(Cl)s1 quantity_kind="chemical recovery by SPE of plasma" result_value=57
molecule=CCOC(=O)[C@H](CCc1ccccc1)N[C@@H](C)C(=O)N1CCC[C@H]1C(=O)O quantity_kind="chemical recovery by SPE of plasma" result_value=44.9
molecule=CN1C(=O)CN=C(c2ccccc2)c2cc(Cl)ccc21 quantity_kind="chemical recovery by SPE of plasma" result_value=4.56
molecule="CCCN(CC)CC1COC2(CCC(C(C)(C)C)CC2)O1 (stereo not drawn)" quantity_kind="chemical recovery by SPE of plasma" result_value=0.0434
molecule="CC/C(=N\\OC/C=C/Cl)C1=C(O)CC(C2CCOCC2)CC1=O (stereo not drawn)" quantity_kind="chemical recovery by SPE of plasma" result_value=41.9
molecule=Cn1ccnc1S quantity_kind="chemical recovery by SPE of plasma" result_value=0.886
molecule="CC(C)(Oc1ccc(CCNC(=O)c2ccc(Cl)cc2)cc1)C(=O)O [Bezafibrate]" quantity_kind="chemical recovery by SPE of plasma" result_value=53.6
molecule="CCC(=C(c1ccc(O)cc1)c1ccc(OCCN(C)C)cc1)c1ccccc1 [4-Hydroxytamoxifen]" quantity_kind="chemical recovery by SPE of plasma" result_value=3.71
molecule="CCNc1ccc2c(C)cc(=O)oc2c1 [7-(Ethylamino)-4-methylcoumarin]" quantity_kind="chemical recovery by SPE of plasma" result_value=2.87
molecule="CC1CCc2cc(F)cc3c(=O)c(C(=O)O)cn1c23 (stereo not drawn)" quantity_kind="chemical recovery by SPE of plasma" result_value=40.3
molecule=CO/N=C(/C(=O)O)c1ccccc1CO/N=C(\C)c1cccc(C(F)(F)F)c1 quantity_kind="chemical recovery by SPE of plasma" result_value=33.6
molecule="C#CC(C)(C)NC(=O)c1cc(Cl)cc(Cl)c1 [Propyzamide]" quantity_kind="chemical recovery by SPE of plasma" result_value=4.71
molecule=Clc1ccc(Cl)c(-c2ccccc2Cl)c1 quantity_kind="chemical recovery by SPE of plasma" result_value=0.249
molecule=Cc1nc2ccccc2s1 quantity_kind="chemical recovery by SPE of plasma" result_value=0.0669
molecule=CC(=O)[C@@]1(O)CC[C@H]2[C@@H]3C=C(Cl)C4=CC(=O)[C@@H]5C[C@@H]5[C@]4(C)[C@H]3CC[C@@]21C quantity_kind="chemical recovery by SPE of plasma" result_value=2.35
